- System: HCT-116 colon
- test: NCI tumour cell line growth inhibition, 48 h
readout-type: TGI

Lookup: Record request: TGI value, item COc1ccc(NC(=O)CC(=O)N2N=C(N3c4ccccc4Sc4ccccc43)CC2c2ccccc2)cc1 (stereo not drawn)
Found: > 100 µM

Lookup: Record request: TGI value, item "Cc1cc(-c2ccc3nc(C4CCOCC4)n(CCOC(F)(F)F)c3c2)cn(C)c1=O"
Found: 14.8 µM

Lookup: Record request: TGI value, item "Cc1cc2c3c(nc4ccccc42)C(=O)c2ccccc2-c3n1"
Found: 75.4 µM

Lookup: Record request: TGI value, item "COc1ccc(/C=C(/C#N)n2nnc3cccc(F)c32)cc1"
Found: 3.02 µM

Lookup: Record request: TGI value, item "O=C(CSc1ccc(Cl)cc1)Nc1ccc(-c2nc3ccccc3s2)c(Cl)c1"
Found: 5.45 µM

----------
- System: RXF 393 renal
- test: NCI tumour cell line growth inhibition, 48 h
// values below are reported TGI

Sample records with TGI:
| compound | readout-type | recorded-value |
| --- | --- | --- |
| CN(C)C1(N(C)C)Oc2c(c(=O)n(C)c(=O)n2C)C(c2ccc(Br)cc2)C1(F)F (stereo unspecified) | TGI | > 100 µM |
| Oc1ccc([I+]c2ccccc2)cc1O | TGI | > 100 µM |
| NS(=O)(=O)c1cc(Cl)c(NC(=S)NC(=O)Nc2ccc(Cl)c(Cl)c2)c(Cl)c1 | TGI | > 100 µM |

Lookup: Record request: TGI value, item CC(C)C(C)/C=C\C(C)C1CCC2C3=CC=C4CC(O)CCC4(C)C3CCC21C (stereo unspecified)
Found: > 58.7 µM

Lookup: Record request: TGI value, item "N#CC(C#N)=CNC(N)=S"
Found: > 100 µM

Lookup: Record request: TGI value, item O=C(O)CCC(=O)OC1N=C(c2ccccc2Cl)c2cc([N+](=O)[O-])ccc2NC1=O (stereo unspecified)
Found: > 100 µM

Lookup: Record request: TGI value, item "CCCCC(C(=O)NCCNC(=O)CCC(=O)N(C)O)C(=O)NCCNC(=O)CCC(=O)N(C)O"
Found: > 100 µM

Lookup: Record request: TGI value, item "CCOC(=O)Cn1c(=O)c2nc(SC)sc2n(-c2ccccc2)c1=O"
Found: > 100 µM

Lookup: Record request: TGI value, item "C[Si](C)(C)C1(Sc2ccccc2)SCCCS1"
Found: > 100 µM

----------
// values below are reported TGI
- Test system: M14 melanoma
- test: NCI tumour cell line growth inhibition, 48 h

Sample records with TGI:
| compound | assayed-system | TGI |
| --- | --- | --- |
| Clc1ccc(C(c2ccc(Cl)cc2)c2ccccn2)cc1 | M14 melanoma | 38 µM |
| CN(C)C1(N(C)C)Oc2c(c(=O)n(C)c(=O)n2C)C(c2ccc(Br)cc2)C1(F)F (stereo not drawn) | M14 melanoma | > 100 µM |
| O=S(=O)(CCn1c(Sc2ccccc2)c(Sc2ccccc2)c2ccccc21)c1ccccc1 | M14 melanoma | > 100 µM |

Lookup: Record request: TGI value, item "CC1=NS(=O)(=O)c2ccccc2N1"
Found: > 100 µM

Lookup: Record request: TGI value, item CN(C)c1ccc(S(=O)Nc2ccccc2)cc1 (stereo not drawn)
Found: > 100 µM

Lookup: Record request: TGI value, item NC1=NCC(CN2CCOCC2)O1 (stereo not drawn)
Found: > 100 µM

Lookup: Record request: TGI value, item "CC(C)(C)OC(=O)N[C@H]1CC2(C=C(Cl)C(=O)C(Cl)=C2)OC1=O"
Found: 33.7 µM

Lookup: Record request: TGI value, item "NS(=O)(=O)c1cc(Cl)c(NC(=S)NC(=O)Nc2ccc(Cl)c(Cl)c2)c(Cl)c1"
Found: > 100 µM

----------
- Tested on: EKVX NSCLC
- test: NCI tumour cell line growth inhibition, 48 h
// values below are reported TGI

Sample records with TGI:
| molecule | assayed-system | TGI |
| --- | --- | --- |
| OCc1ccc(-c2ccc(-c3ccc(CO)s3)o2)s1 | EKVX NSCLC | > 96.4 µM |
| CCCCCCOc1ccc(C(=O)NOC)cc1 | EKVX NSCLC | > 100 µM |
| Cc1ccccc1S(=O)(=O)OC1NS(=O)(=O)c2ccccc21 (centres undefined) | EKVX NSCLC | > 100 µM |

Field: next molecule
Lookup: Record request: TGI value, item "CSc1nsc(-c2ccccc2)[s+]1"
Found: > 100 µM

----------
// values below are reported TGI
- System: MDA-MB-435
- test: NCI tumour cell line growth inhibition, 48 h

Sample records with TGI:
| molecule | assayed-system | TGI |
| --- | --- | --- |
| OC(c1nc2ccccc2[nH]1)C(O)C(O)C(O)c1nc2ccccc2[nH]1 (stereo unspecified) | MDA-MB-435 | > 100 µM |
| CCOP(=O)(OCC)C(c1ccc(F)cc1)N(C(=O)NC(F)(F)F)c1ccc(OC)cc1 (stereo unspecified) | MDA-MB-435 | > 100 µM |
| OCC#Cc1ccccc1C#Cc1ccccc1 | MDA-MB-435 | 28.1 µM |

Lookup: Record request: TGI value, item "CSC(=S)N(C)C"
Found: > 100 µM

Lookup: Record request: TGI value, item O=C(O)c1ccccc1CC1Cc2ccccc2C1=O (stereo unspecified)
Found: > 100 µM

Lookup: Record request: TGI value, item "CC1=C[C@@H]2Cc3nc4cc(Cl)ccc4c(N)c3[C@H](C1)C2"
Found: 25.8 µM

----------
- Tested on: MDA-MB-435
- test: NCI tumour cell line growth inhibition, 48 h
readout-type: TGI

| molecule | recorded-value |
| --- | --- |
| CC(=O)OC1=CC(n2cc(F)c(=O)[nH]c2=O)OC(C)C1=O (stereo not drawn) | > 100 µM |
| O=C(Nc1nccs1)c1c(O)nc2sccn2c1=O | > 10 µM |

Lookup: Query the reported TGI for MDA-MB-435; item: "NS(=O)(=O)c1cc2c(cc1Cl)NC(CCC(=O)O)=NS2(=O)=O"
Found: > 100 µM

----------
- System: A549 NSCLC
- test: NCI tumour cell line growth inhibition, 48 h
readout-type: GI50

Sample records with GI50:
| compound | assayed-system | readout-type | recorded-value |
| --- | --- | --- | --- |
| C=C1C(=O)O[C@H]2[C@H]1CC/C(COC(=O)c1c[nH]c3ccccc13)=C\CC[C@@]1(C)O[C@@H]21 | A549 NSCLC | GI50 | 1500 nM |
| Fc1cc2[nH]ncc2c2c3c(c(-c4cn[nH]c4)nc12)CCCC3 | A549 NSCLC | GI50 | 844 nM |

Field: next compound
Lookup: Record request: GI50 value, item CC(=O)[C@@]12O[C@@H]1CC1C3CCC4=CC(O)CCC4(C)C3CCC12C (stereo partly drawn)
Found: 72700 nM

----------
- System: BT-549 breast
- test: NCI tumour cell line growth inhibition, 48 h
readout-type: TGI

| compound | TGI |
| --- | --- |
| Cc1ccccc1S(=O)(=O)OC1NS(=O)(=O)c2ccccc21 (stereo not given) | > 100 µM |

Lookup: Record request: TGI value, item "CCN1CCN(c2nc(C)cc(N(CCNc3ccnc4cc(Cl)ccc34)Cc3ccc4c(c3)OCO4)n2)CC1"
Found: 3.73 µM

Lookup: Record request: TGI value, item "COc1cccc2c(=O)oc(-c3ccc(C(C)(C)C)cc3)nc12"
Found: > 100 µM

Lookup: Record request: TGI value, item "Cc1cc(C(=O)CCCCOc2ccc(C3=NCCO3)cc2)c(C)n1C"
Found: > 100 µM

Lookup: Record request: TGI value, item CN(C)C1(N(C)C)Oc2c(c(=O)n(C)c(=O)n2C)C(c2ccc(Br)cc2)C1(F)F (stereo not given)
Found: > 100 µM

Lookup: Record request: TGI value, item "O=C(/C=C/c1ccc(Cl)cc1)c1ccc(Nc2ccnc3cc(Cl)ccc23)cc1"
Found: > 100 µM

Lookup: Record request: TGI value, item "Cc1ccc(S(=O)(=O)N/N=C/C2(c3ccccc3)c3ccccc3-c3ccccc32)cc1"
Found: 27.7 µM

Lookup: Record request: TGI value, item "Cc1ccc(S(=O)(=O)Nc2ccccc2C(=O)c2ccc(C)c(C)c2)cc1"
Found: > 100 µM

Lookup: Record request: TGI value, item COc1cccc2c1OC1(C=C2)Oc2ccccc2C(=O)N1C (stereo not given)
Found: 88.2 µM

Lookup: Record request: TGI value, item "O=C1c2ccccc2-c2c1c(-c1ccc(F)cc1)nc1ccc3ccccc3c21"
Found: > 100 µM

----------
// values below are reported TGI
- System: SF-295 CNS
- test: NCI tumour cell line growth inhibition, 48 h
Respond numerically; units are µM and should not be typed.

Lookup: Record request: TGI value, item "N=Nc1c(OC(=O)Nc2cccc(Cl)c2)[nH]c2ccccc12"
Found: 5.99

Lookup: Record request: TGI value, item Nc1ncnc2c1nnn2C1OC(CO)C(O)C1O (stereo not given)
Found: 7.59

Lookup: Record request: TGI value, item "c1ccc(COc2cccc3ccc[n+](Cc4ccccc4)c23)cc1"
Found: 37.9

Lookup: Record request: TGI value, item "Cc1cc2c3c(nc4ccccc42)C(=O)c2ccccc2-c3n1"
Found: 60.4

Lookup: Record request: TGI value, item "C=C1C(=O)O[C@H]2[C@H]1CC/C(COC(=O)c1c[nH]c3ccccc13)=C\CC[C@@]1(C)O[C@@H]21"
Found: 4.47

Lookup: Record request: TGI value, item "OCCCCCNCc1cc2cc3c(cc2c2cc(OCc4ccccc4)ccc12)OCO3"
Found: 3
